Test: Reverse-phase thin-layer chromatographic lipophilicity (RF, RM0)
Format: physicochemical
Conditions: RP-18 silica; I = 90%MeOH/5%H2O/5%HCl
Protocol: Chromatographic determination of lipophilicity Merck, Darmstadt, Germany). The mobile phase contained organic modifier (methanol, acetone or dioxane), water and hydrochloric acid. Methanol was varied in the range […] with an increment of 10%. […] before chromatogram development. The solvent developing distance was 4.5 cm. Detection of […] All experiments were performed at ambient temperature (22±2 °C). Retention parameters were calculated as previously described. […]
TEST READOUT: RF, Methanol/Water/Hydrochloric acid (conc.), mobile phase I
Could you respond with only the numeric value?

{"columns": ["COMPOUND", "DATA VALUE"],
 "data": [
  ["Clc1ccc2c(NCCCCCCCCNCC34CC5CC(CC(C5)C3)C4)ccnc2c1", 0.67],
  ["Clc1ccc2c(Nc3ccc(NCC45CC6CC(CC(C6)C4)C5)cc3)ccnc2c1", 0.73],
  ["Clc1ccc2c(NCCCN3CCN(CCCNCCC45CC6CC(CC(C6)C4)C5)CC3)ccnc2c1", 0.64]
]}

With those in mind, consider the next compound.
[Q] Give the measured RF, Methanol/Water/Hydrochloric acid (conc.), mobile phase I of CC(CCNCCC12CC3CC(CC(C3)C1)C2)Nc1ccnc2cc(Cl)ccc12 (stereo not shown) .
[A] 0.67

Source: paper PMC9229919
